Measured values drawn from ChEMBL document CHEMBL1949526 for this set.

test.description: Oral bioavailability in monkey at 10 mg/kg
Format: ADME, organism-based, Macaca mulatta
condition.context: rhesus monkey, in vivo
This section presents compounds with their documented bioavailability values.
Write the value in % as a bare number.

Take a look at these entries with their results.
>>> print(df.to_string())
                                   compound     readout_kind  measurement
0  COc1cc(/C=C2\CCCN3C2=NO[C@]3(CO)c2ccc(F)cc2)ccc1-n1cnc(C)c1  bioavailability           48
1  COc1cc(/C=C2\CCCN3C2=NOC[C@@H]3c2cc(F)c(F)c(F)c2)ccc1-n1cnc(C)c1  bioavailability           34

Can you share its bioavailability? I mean this compound: COc1cc(/C=C2\CCCN3C2=NOC3(C)c2ccc(F)cc2)ccc1-n1cnc(C)c1 (single isomer, unassigned) 57
